List of solubility values.
Protocol Text: Compound solubility in water
Assay type: physicochemical

[
  {
    "Molecule": "CCCCO[C@H]1C[C@H]2CC[C@@H](C1)[C@H]2NC(=O)c1ncn2c(C)cc(C)nc12 [III-84]",
    "Bound Operator": "=",
    "solubility [µg/mL]": 0.2
  },
  {
    "Molecule": "CCOCc1cccc(C(C)(C)NC(=O)c2ncn3c(COC)cc(C4CC4)nc23)c1 [III-59]",
    "Bound Operator": "=",
    "solubility [µg/mL]": 26.3
  },
  {
    "Molecule": "Cc1cc(C)n2cnc(C(=O)Nc3ccc(Cl)c(COc4cccnc4)c3)c2n1 [III-23]",
    "Bound Operator": "=",
    "solubility [µg/mL]": 0.3
  },
  {
    "Molecule": "Cc1cc(C)n2cnc(C(=O)Nc3ncc(C)[nH]3)c2n1 [III-6]",
    "Bound Operator": ">",
    "solubility [µg/mL]": 54
  },
  {
    "Molecule": "C#Cc1ccc(NC(=O)c2ncn3c(C)cc(C)nc23)cn1 [III-5]",
    "Bound Operator": "=",
    "solubility [µg/mL]": 26.6
  }
]
